These data points were gathered from ChEMBL document CHEMBL1201862.

Entries and their EC50
test: inhibitors of SNCA 5'UTR-driven reporter translation, confirmation, H4 neuroglioma cells, luminescence (AID 1988); format: functional, cell-based
The source made the active and inactive calls.

Examples with answers:
structure_as_smiles=COc1ccc(C2=Nn3c(nnc3-c3ccccn3)SC2)cc1OC result="17.2 µM (active)"
structure_as_smiles=Cc1cc(Cl)ccc1OCC(=O)Nc1ccccc1N1CCOCC1 result="> 120 µM (not active)"
structure_as_smiles=FC(F)(F)c1cccc(OCc2nnc3n2CCC3)c1 result="> 120 µM (not active)"

Can you look up the measured EC50 of COc1cc2c(c(OC)c1OC)-c1ccc(O)cc1[C@@H](NC(C)=O)CC2 for me? < 0.1 µM (active)

----------
assay: cytotoxicity toward NIH3T3 fibroblasts, dose response, counter-screen, cell-based, ATP luminescence, mouse fibroblasts (AID 2010); type: functional;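 note: cells exposed to compound for about 90 hours before reading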
Calls of active or inactive are those of the source.
Entries and their EC50

Examples with answers:
molecule="CN(CCOc1ccc(Br)cc1)CC(O)c1ccccc1 (stereo unspecified)" endpoint_label=EC50 result="> 60 µM (not active)"
molecule=CCOc1cc(CNCCN2CCOCC2)ccc1OCc1ccccc1Cl endpoint_label=EC50 result="21.1 µM (active)"
molecule=CCOc1cc(/C=N/NC(=O)Cn2nc([N+](=O)[O-])cc2C)cc(Br)c1OCc1ccccc1C endpoint_label=EC50 result="> 60 µM (not active)"
molecule="C/C(=N\\N1C(=O)c2ccccc2NC1c1ccco1)c1ccccc1O (stereo unspecified)" endpoint_label=EC50 result="4.99 µM (active)"
molecule=CN(/C=C/C1=[N+](C)c2ccccc2C1(C)C)c1ccccc1 endpoint_label=EC50 result="> 60 µM (inconclusive)"

Turning to the following molecule.
Can you look up the measured EC50 of Cc1cc2oc(=O)c(CC(=O)NCCCN(C)C)c(C)c2c2occ(C(C)(C)C)c12 for me? 4.86 µM (active)

----------
Entries and their IC50
target: Fatty acid synthase (Homo sapiens); assay: FAS thioesterase domain inhibitors, dose response, biochemical, kinetic fluorescence intensity (AID 624326); assay type: functional;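 note: rate of fluorescence rise from hydrolysis of a fluorogenic O-methyl fluorescein ester substrate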
Sequence (P49327 whole entry, the tested form may be a part): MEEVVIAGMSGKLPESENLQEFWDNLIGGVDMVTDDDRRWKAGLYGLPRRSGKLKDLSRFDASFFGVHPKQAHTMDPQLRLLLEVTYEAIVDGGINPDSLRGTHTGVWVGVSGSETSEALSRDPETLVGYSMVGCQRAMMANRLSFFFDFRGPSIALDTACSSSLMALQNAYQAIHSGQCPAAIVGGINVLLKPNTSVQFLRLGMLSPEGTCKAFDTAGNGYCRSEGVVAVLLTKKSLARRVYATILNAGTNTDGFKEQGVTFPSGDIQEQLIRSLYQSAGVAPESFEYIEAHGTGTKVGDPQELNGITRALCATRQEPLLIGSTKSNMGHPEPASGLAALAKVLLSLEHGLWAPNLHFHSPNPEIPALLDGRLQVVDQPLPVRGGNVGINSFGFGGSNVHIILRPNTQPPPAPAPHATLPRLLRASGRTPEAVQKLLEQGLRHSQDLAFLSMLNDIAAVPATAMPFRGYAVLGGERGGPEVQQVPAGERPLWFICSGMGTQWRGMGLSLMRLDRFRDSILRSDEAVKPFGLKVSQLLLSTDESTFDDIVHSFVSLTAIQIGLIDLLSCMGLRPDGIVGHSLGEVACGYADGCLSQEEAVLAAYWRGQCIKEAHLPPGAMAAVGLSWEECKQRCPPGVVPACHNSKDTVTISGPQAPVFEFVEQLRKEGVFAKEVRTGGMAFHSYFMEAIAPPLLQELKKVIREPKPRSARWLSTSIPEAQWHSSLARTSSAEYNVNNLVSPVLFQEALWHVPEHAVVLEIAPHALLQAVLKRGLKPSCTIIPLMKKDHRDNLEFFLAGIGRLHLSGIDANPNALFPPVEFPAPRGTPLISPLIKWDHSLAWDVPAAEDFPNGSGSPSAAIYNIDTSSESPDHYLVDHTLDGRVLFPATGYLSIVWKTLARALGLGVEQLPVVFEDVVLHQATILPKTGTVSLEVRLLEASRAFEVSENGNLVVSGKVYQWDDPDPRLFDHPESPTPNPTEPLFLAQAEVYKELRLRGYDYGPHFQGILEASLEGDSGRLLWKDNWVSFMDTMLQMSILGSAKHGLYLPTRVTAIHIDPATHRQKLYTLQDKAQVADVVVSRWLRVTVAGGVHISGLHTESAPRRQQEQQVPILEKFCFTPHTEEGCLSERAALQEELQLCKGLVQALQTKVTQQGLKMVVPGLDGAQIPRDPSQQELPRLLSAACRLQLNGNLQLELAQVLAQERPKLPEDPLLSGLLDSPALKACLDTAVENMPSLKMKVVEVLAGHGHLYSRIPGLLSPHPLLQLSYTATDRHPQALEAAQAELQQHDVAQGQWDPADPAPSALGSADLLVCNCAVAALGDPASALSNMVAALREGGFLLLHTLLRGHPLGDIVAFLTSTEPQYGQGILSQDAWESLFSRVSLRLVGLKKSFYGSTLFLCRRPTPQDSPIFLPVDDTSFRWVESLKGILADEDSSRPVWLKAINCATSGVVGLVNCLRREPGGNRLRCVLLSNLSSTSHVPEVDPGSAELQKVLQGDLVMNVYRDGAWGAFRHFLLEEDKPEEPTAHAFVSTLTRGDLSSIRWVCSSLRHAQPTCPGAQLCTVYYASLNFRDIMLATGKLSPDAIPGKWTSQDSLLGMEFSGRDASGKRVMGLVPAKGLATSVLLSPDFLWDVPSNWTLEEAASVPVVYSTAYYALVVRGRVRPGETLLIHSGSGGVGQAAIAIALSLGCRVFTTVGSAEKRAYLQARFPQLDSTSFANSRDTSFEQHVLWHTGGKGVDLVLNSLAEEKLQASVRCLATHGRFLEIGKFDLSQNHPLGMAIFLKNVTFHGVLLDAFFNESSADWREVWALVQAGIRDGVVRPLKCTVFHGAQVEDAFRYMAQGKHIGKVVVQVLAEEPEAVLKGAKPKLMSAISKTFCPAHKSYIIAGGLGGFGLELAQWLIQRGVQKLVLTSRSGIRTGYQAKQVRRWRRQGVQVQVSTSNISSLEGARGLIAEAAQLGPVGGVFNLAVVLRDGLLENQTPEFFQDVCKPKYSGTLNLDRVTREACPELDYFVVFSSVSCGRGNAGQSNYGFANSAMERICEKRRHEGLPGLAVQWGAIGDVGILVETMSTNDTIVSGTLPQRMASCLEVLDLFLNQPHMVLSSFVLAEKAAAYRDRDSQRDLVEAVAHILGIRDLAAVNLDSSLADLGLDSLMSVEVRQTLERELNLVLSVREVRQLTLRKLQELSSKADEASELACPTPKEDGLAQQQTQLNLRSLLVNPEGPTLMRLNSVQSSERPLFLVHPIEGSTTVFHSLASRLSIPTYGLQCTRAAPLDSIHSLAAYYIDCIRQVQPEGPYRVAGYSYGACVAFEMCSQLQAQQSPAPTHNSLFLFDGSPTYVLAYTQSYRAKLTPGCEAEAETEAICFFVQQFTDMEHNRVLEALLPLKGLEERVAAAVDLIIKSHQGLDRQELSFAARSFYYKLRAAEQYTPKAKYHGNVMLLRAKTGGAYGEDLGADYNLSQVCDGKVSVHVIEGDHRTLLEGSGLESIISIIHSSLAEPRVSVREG
Active and inactive are the calls of the source.

Examples with answers:
compound=O=C(Cn1nc(-c2ccco2)ccc1=O)Nc1cc(C(F)(F)F)ccc1Cl result="13.1 µM (active)"
compound=O=C(CCN1C(=O)/C(=C/c2ccccc2Cl)SC1=S)Nc1ccccc1C(=O)O result="5.37 µM (active)"
compound=Cc1nc(Sc2ccccc2)c(C#N)c(C)c1[N+](=O)[O-] result="8.81 µM (active)"
compound=COc1cccc(NC(=O)CN2C(=O)CSc3ccc(S(=O)(=O)N4CCC(C)CC4)cc32)c1 result="2.44 µM (active)"
compound="CC1(C(=O)NS(=O)(=O)c2ccc(C#N)cc2)CCN1C(=O)c1ccc(C2CCCCC2)cc1 (configuration not stated)" result="5.24 µM (active)"
compound=CC1CCN(S(=O)(=O)c2ccc3c(c2)c(=O)c(C(=O)NCc2ccco2)cn3C)CC1 result="2.4 µM (active)"

Turning to the following compound.
What measured IC50 is associated with CC(C)c1ccc(S(=O)(=O)c2nnn3c2nc(NCC2CCCO2)c2ccccc23)cc1 (configuration not stated) on Fatty acid synthase (Homo sapiens)? 1.34 µM (active)

----------
molecular target: Peroxisome proliferator-activated receptor gamma/Nuclear receptor coactivator 2 (Homo sapiens, UniProt P37231); assay type: functional;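 note: agonist potency for raising coactivator recruitment to the receptor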
Sequence (P37231 whole entry): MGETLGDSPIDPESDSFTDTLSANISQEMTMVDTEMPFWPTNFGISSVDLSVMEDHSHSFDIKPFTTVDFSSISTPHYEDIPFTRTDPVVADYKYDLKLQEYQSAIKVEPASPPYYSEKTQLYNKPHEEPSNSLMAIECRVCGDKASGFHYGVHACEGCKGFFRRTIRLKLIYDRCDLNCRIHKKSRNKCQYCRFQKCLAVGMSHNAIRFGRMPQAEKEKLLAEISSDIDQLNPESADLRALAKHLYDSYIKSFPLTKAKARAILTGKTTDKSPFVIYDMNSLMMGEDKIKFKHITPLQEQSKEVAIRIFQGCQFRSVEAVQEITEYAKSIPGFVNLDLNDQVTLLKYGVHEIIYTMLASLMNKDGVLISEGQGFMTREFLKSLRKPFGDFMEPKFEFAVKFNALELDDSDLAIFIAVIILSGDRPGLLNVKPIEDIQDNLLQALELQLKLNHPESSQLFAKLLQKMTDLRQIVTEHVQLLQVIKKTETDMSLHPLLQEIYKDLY
Sequence (Q15596 whole entry, further chain): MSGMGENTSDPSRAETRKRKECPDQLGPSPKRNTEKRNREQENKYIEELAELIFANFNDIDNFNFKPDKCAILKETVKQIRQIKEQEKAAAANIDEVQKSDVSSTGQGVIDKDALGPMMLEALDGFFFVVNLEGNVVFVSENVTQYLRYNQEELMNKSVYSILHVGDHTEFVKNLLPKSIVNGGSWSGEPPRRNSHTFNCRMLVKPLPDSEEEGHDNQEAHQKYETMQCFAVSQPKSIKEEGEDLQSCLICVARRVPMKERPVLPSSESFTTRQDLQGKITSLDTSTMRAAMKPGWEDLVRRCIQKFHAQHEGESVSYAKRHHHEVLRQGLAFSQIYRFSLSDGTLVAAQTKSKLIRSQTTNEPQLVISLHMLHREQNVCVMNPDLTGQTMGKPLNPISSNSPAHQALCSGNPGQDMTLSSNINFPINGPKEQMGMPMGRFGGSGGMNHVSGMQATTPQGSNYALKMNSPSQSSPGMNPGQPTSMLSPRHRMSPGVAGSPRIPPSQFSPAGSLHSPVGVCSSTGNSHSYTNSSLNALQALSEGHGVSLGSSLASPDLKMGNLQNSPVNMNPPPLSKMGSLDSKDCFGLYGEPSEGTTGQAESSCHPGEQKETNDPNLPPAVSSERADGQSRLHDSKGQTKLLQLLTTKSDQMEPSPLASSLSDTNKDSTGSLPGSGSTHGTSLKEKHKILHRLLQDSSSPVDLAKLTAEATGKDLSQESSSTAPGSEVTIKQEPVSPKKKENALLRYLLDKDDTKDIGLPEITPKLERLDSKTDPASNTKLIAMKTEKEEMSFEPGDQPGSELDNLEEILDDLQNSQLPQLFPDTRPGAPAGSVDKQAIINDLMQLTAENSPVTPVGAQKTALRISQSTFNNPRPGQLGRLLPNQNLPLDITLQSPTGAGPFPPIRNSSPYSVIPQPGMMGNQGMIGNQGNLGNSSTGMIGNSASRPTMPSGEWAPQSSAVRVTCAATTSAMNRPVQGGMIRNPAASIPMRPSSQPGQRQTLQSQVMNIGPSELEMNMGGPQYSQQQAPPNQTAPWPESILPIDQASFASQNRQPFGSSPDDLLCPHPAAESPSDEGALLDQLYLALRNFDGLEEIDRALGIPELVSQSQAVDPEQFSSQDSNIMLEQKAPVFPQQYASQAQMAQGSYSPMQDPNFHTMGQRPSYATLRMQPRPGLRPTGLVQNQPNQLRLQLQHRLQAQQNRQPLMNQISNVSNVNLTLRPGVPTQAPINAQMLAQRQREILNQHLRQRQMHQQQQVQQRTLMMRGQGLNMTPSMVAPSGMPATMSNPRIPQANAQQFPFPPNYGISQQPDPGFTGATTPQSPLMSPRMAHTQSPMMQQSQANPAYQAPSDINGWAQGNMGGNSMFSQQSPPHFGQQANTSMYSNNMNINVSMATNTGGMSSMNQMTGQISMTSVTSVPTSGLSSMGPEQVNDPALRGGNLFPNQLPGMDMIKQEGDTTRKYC
endpoint_label: EC50

structure_as_smiles=Cc1cccc(NC(=O)c2sc3nc(-c4ccc(F)cc4)cn3c2C)n1 endpoint_label=EC50 result="12.3 µM (not active)"
structure_as_smiles=CC(C)(C)NC(=O)CSc1nc(O)cc(=O)n1-c1ccccc1F endpoint_label=EC50 result="> 79.4 µM (not active)"
structure_as_smiles=COc1ccc(-c2nc(-c3ccc(NC(=O)c4ccc(Br)o4)cc3)no2)cc1OC endpoint_label=EC50 result="49.2 µM (not active)"
structure_as_smiles=C#CCn1/c(=N/C(=O)c2ccc(Cl)s2)sc2cccc(OC)c21 endpoint_label=EC50 result="12.8 µM (not active)"
structure_as_smiles=COc1ccc(-c2noc(Cc3ccccc3OC)n2)cc1 endpoint_label=EC50 result="> 79.4 µM (not active)"

Can you look up the measured EC50 of O=C(c1cccc(C(F)(F)F)c1)N1CCN(c2cc(O)nnc2-c2ccccc2)CC1 for me? > 79.4 µM (not active)

Can you look up the measured EC50 of CC(C)(C)c1ccc(-c2nnc3sc(-c4ccncc4)nn23)cc1 for me? > 79.4 µM (not active)

----------
target: Beta-galactosidase (Escherichia coli, UniProt Q8VNN2); experiment: Dose response counterscreen for EBI2 assay utilizing the enzyme, b-galactosidase.; assay type: functional
Active and inactive are the calls of the source.
Entries and their IC50

structure_as_smiles=CN1CCN(C(=O)/C=C/c2ccc(Cl)c(Cl)c2)CC1 endpoint_label=IC50 result="> 80 µM (inactive)"
structure_as_smiles=Cc1cc(C)n(-c2ccc(C(=O)N3CCN(S(=O)(=O)c4ccc(Br)cc4Cl)CC3)cc2)n1 endpoint_label=IC50 result="> 80 µM (inactive)"

What measured IC50 is associated with CCOc1ccc(NC(S)=Nc2ccc(C)c([N+](=O)[O-])c2)cc1 on Beta-galactosidase (Escherichia coli, UniProt Q8VNN2)? 131 µM (inactive)

What measured IC50 is associated with Cc1[nH]c2ccc(C(=O)N3CCN(c4ccc(F)cc4)CC3)cc2c1C on Beta-galactosidase (Escherichia coli, UniProt Q8VNN2)? > 80 µM (inactive)

----------
Biological target: Histone-lysine N-methyltransferase NSD2 (Homo sapiens, UniProt O96028)
Sequence (O96028 whole entry): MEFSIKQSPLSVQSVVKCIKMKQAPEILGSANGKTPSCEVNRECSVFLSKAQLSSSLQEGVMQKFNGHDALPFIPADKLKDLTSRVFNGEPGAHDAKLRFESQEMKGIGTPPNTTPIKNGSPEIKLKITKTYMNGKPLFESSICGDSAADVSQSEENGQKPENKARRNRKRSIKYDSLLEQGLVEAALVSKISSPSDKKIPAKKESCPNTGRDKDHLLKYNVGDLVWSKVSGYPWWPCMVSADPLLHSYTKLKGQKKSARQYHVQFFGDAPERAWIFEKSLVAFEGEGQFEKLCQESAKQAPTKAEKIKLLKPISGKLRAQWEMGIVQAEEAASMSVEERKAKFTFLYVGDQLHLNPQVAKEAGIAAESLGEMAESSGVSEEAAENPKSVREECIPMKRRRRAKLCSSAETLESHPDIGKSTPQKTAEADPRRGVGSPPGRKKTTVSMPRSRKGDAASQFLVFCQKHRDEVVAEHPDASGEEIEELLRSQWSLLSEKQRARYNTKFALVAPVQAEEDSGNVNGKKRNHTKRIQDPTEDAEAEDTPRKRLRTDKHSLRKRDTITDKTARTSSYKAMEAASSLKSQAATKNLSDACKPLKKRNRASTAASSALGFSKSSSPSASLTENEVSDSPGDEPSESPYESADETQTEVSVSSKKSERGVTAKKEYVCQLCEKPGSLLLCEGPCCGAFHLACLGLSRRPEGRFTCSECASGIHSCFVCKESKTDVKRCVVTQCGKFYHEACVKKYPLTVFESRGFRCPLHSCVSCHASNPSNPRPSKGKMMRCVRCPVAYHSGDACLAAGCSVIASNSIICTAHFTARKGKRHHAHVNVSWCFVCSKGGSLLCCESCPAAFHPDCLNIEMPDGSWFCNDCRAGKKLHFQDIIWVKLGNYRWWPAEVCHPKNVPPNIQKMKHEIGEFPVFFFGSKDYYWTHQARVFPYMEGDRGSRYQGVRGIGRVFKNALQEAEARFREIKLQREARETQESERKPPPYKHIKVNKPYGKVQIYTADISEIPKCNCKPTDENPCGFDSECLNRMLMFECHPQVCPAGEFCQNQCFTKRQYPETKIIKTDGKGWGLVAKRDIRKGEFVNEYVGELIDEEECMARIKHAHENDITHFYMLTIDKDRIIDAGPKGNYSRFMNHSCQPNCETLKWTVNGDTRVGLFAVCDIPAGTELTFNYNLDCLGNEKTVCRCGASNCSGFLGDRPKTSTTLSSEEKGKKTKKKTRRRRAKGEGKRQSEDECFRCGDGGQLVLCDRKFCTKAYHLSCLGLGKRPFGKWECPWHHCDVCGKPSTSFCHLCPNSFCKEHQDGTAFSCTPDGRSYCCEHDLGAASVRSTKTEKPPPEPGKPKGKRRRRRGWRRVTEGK
Type: biochemical
The source made the active and inactive calls.
Hello, when you answer, please use one of the following outcomes: class 1 (active), class 0 (inactive)

molecule=O=C(NNc1cc(N2CCCC2)nc(N2CCCC2)n1)c1ccc([N+](=O)[O-])cc1 category="class 1"
molecule=COC(=O)Nc1ccc2c(c1)N(C(=O)CCN(C)C)c1ccccc1CC2 category="class 0"
molecule=O=S(=O)(O)c1cccc2c(N=Nc3ccc(O)c4ncccc34)cccc12 category="class 1"
molecule="CC1COCC(C)N1C1=C(Cl)C(=O)c2ccccc2C1=O (configuration not stated)" category="class 1"
molecule=Cc1cc(/C=N/NC(=O)c2cccc(N(C)C)c2)c(C)n1-c1cc(C(=O)O)cc(C(=O)O)c1 category="class 0"

Outcome logged for CCOCCCNC1=C(Cl)C(=O)c2ccccc2C1=O in this assay: class 1

Outcome logged for N=C(NCc1ccc2c(c1)OCO2)NC(=O)c1ccccc1 in this assay: class 1
